Reported IC50 values for a set of compounds
biological target: Nav 1.7 (Homo sapiens (Human), UniProt Q15858); assay: in-vitro Nav 1.7 PX (IC50); format: cell-based; conditions: in-vitro Nav 1.7 PX data
Sequence (Q15858 whole entry): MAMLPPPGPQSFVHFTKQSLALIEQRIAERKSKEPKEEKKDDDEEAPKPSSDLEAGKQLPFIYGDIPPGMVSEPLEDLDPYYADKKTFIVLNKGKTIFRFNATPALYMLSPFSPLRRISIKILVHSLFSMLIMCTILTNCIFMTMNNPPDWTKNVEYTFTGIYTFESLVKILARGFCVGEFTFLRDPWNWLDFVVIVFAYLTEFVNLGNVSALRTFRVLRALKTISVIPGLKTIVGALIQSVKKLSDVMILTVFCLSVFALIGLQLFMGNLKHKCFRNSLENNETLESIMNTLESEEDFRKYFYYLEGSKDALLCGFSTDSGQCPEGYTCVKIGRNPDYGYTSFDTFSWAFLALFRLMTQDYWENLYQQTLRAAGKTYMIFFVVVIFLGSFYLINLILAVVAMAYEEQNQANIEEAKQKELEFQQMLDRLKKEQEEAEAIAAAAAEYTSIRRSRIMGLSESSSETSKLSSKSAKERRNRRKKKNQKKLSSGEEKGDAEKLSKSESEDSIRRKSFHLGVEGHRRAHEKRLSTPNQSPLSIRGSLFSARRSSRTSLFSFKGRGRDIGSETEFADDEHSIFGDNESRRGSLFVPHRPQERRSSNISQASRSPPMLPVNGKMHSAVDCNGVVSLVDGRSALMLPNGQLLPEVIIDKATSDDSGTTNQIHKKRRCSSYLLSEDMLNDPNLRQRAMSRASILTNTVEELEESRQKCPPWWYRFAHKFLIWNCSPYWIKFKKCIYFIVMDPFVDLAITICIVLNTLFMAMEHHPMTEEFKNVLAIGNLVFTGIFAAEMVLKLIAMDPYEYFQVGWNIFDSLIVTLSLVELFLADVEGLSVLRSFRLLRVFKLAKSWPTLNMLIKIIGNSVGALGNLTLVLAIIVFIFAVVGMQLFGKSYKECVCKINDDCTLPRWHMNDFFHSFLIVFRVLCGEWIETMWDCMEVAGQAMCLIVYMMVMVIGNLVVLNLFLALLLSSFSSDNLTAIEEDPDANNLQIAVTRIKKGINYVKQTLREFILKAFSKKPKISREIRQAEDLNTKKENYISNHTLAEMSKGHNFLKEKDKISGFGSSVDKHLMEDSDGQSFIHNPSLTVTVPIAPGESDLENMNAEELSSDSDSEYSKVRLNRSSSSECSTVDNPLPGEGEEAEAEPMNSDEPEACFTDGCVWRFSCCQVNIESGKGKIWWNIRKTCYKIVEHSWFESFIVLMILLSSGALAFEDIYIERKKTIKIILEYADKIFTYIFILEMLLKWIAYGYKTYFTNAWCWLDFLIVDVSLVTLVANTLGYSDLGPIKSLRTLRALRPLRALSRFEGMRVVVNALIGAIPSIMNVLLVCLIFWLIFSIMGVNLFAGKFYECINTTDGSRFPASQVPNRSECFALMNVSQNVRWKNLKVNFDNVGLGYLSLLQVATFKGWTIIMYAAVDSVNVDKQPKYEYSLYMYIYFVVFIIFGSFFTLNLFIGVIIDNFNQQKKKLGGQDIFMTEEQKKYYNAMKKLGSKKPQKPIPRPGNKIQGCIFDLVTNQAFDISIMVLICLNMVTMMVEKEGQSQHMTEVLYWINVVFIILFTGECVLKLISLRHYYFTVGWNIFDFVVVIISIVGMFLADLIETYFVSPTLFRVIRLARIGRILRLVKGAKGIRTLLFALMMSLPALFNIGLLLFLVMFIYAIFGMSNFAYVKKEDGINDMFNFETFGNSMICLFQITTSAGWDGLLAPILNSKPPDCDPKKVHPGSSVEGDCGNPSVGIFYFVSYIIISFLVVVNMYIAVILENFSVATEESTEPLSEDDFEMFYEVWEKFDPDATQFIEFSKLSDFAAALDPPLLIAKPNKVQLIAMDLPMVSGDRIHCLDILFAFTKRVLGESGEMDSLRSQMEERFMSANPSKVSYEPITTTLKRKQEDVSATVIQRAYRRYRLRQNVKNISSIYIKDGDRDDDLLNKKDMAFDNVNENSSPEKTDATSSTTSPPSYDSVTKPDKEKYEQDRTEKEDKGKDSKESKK
metric: IC50 (nM)

| compound | endpoint.result |
| --- | --- |
| COc1cc(-c2ccc(F)c(C)c2)c(F)cc1-n1c(=O)ccc2cc(S(=O)(=O)Nc3ccon3)c(F)cc21 | 14 |
| COc1cc(-c2ccc(Cl)cc2C)c(F)cc1-n1c(=O)ccc2cc(S(=O)(=O)Nc3ccon3)ccc21 | 7 |
| COc1nc(-c2cccc(C)c2)c(Cl)cc1-n1c(=O)ccc2cc(S(=O)(=O)Nc3ccon3)ccc21 [Example 1089] | 3240 |
| COc1ccc(C#N)cc1-c1cc(OC)c(-n2c(=O)ccc3cc(S(=O)(=O)Nc4ccon4)ccc32)cc1F | 153 |

// provenance: patent US9212182B2
